- Test system: CCRIS mutagenicity, Ames/micronucleus/aberration tests
- ASSAY_OVERVIEW: CCRIS mutagenicity studies
- EXPERIMENTAL_PARAMETERS: End Point: IN VITRO CHROMOSOMAL ABERRATIONS; Test System: CHO-LB CELLS; Metabolic Activation: NONE
The source made the active and inactive calls. The rule behind the calls is not given here.
Write down the outcome that applies. Available outcomes: active, inactive

Please review the following examples before continuing.
Clc1ccc(Cl)c(Cl)c1Cl : inactive
COC(=O)c1ccc(C(=O)OC)cc1 : inactive
S=[Se] : active

[in] Record lookup: outcome of this test for `Cc1ccc(N)cc1N` ?
[out] active

All values here come from PubChem BioAssay AID1259407.
